# assay.target: T1, human TNFR2 on the surface of CHO-TNFR2 cells (human, UniProt P20333 23-461)
# T1 construct: whole, on cells
# T1 sequence (looked up): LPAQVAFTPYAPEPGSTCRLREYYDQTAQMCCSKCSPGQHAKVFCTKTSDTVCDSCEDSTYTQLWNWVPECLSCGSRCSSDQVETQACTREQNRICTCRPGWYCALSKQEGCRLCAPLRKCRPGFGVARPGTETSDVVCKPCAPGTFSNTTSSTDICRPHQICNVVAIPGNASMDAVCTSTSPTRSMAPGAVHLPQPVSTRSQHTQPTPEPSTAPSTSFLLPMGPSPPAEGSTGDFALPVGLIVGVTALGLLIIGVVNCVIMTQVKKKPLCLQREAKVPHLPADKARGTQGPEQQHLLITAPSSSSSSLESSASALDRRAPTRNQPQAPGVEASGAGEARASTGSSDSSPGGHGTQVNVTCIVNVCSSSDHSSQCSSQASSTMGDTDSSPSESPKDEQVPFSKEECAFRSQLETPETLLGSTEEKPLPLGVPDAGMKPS
# test.protocol: competition flow cytometry on CHO-TNFR2 cells, competitor TNFα-biotin; AUC against 219-WT
Provide the recorded % Relative activity (WT antibody/test antibody) for the entries that follow.
Give bare numbers, in %.

binder	val
219-Hu2 (antibody, V domains shown, also called VH4 + VL5) VH: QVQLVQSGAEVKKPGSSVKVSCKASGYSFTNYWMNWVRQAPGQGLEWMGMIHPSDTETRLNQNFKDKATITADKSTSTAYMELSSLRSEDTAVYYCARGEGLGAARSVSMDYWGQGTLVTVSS VL: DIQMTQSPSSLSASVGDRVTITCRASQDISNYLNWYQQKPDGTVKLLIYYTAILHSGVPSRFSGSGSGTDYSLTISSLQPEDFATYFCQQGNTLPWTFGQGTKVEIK	102

Attention now turns to another entry.
Quick one: % Relative activity (WT antibody/test antibody) of 219-Hu3 (antibody, V domains shown, also called VH5 + VL5) VH: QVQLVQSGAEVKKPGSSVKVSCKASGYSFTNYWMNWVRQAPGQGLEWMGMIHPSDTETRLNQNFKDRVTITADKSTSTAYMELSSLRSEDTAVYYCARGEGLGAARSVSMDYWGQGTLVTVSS VL: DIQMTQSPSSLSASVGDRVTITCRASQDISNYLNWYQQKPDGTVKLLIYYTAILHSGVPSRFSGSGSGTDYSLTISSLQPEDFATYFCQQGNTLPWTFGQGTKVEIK ?
98.5
